target: Gamma-aminobutyric acid receptor subunit alpha-1 (Rattus norvegicus, UniProt P62813); also: assay procedure not described here
Sequence (P62813 whole entry): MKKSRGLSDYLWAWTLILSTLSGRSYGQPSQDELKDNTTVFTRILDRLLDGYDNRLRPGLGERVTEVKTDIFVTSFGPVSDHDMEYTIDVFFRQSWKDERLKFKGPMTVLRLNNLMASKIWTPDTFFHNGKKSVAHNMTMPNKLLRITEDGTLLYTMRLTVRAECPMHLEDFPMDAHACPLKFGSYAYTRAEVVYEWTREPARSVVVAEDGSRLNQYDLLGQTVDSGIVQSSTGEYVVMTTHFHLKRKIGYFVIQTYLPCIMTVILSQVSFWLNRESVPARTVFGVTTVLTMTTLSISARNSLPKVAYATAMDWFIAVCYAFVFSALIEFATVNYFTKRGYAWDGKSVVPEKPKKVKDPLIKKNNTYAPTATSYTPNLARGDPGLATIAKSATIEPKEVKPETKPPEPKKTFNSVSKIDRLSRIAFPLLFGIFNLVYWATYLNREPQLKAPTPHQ
Property Name: AC50

Some solved cases for reference:
1. CC1=C(/C=C/C(C)=C\C=C\C(C)=C\C(=O)O)C(C)(C)CCC1 = > 30 µM
2. N=C(N)NC(=O)c1nc(Cl)c(N)nc1N [AMILORIDE] = > 30 µM
3. CC(C)NC[C@H](O)COc1ccc(O)cc1 = > 30 µM
4. O=NN(CCCl)C(=O)NC1CCCCC1 = > 30 µM

Let's switch to this molecule now.
Ask | Short answer please: AC50, Gamma-aminobutyric acid receptor subunit alpha-1 (Rattus norvegicus, UniProt P62813), entry CC1(C)S[C@@H]2[C@H](NC(=O)[C@H](NC(=O)c3cnc4cccnc4c3O)c3ccccc3)C(=O)N2[C@H]1C(=O)O
Reply | 1.25 µM
